assay: TIMS collisional cross section (CCS, N2) of the lipid ion; higher = larger ion cross section; details: sample type: HeLa; ionization mode: positive; one isomer drawn
quantity-measured: TIMS collisional cross section (Å²)

Exam item: Determine from records and report TIMS collisional cross section for CCCCCCCCCCCCC/C=C/[C@@H](O)[C@H](CO)NC(=O)CCCCCCCCCCCCCCCCCCCCCC [Cer d18:1_23:0@] (ion (formula + adduct): [C41H81NO3+H] 1+)
Marked response: 276.9

Exam item: Determine from records and report TIMS collisional cross section for CC/C=C\C/C=C\C/C=C\C/C=C\C/C=C\C/C=C\CCC(=O)OC[C@@H](COC(=O)CCCCCCC/C=C\CCCCCC)OC(=O)CC/C=C\C/C=C\C/C=C\C/C=C\C/C=C\C/C=C\CC [TG 16:1_22:6_22:6] (ion (formula + adduct): [C63H96O6+NH4] 1+)
Marked response: 329.5

Exam item: Determine from records and report TIMS collisional cross section for CC/C=C\C/C=C\C/C=C\C/C=C\C/C=C\CCCCCC(=O)O[C@H](COCCCCCCCCCCCCCCCC)COP(=O)([O-])OCC[N+](C)(C)C [PC O- 16:0@_22:5] (ion (formula + adduct): [C46H84NO7P+H] 1+)
Marked response: 294.4

Exam item: Determine from records and report TIMS collisional cross section for CCCCCCCCCCCCCCCC(=O)O[C@@H](CO)COC(=O)CCCCCCCCCCCCC [DG 14:0_16:0_0:0] (ion (formula + adduct): [C33H64O5+NH4] 1+)
Marked response: 252.4

Exam item: Determine from records and report TIMS collisional cross section for CC/C=C\C/C=C\C/C=C\C/C=C\C/C=C\C/C=C\CCC(=O)OC[C@@H](COC(=O)CCCCCCC/C=C\CCCCCCCC)OC(=O)CCCCCCC/C=C\CCCCCCCC [TG 18:1_18:1_22:6] (ion (formula + adduct): [C61H102O6+NH4] 1+)
Marked response: 331.3

Exam item: Determine from records and report TIMS collisional cross section for CC/C=C\C/C=C\C/C=C\C/C=C\C/C=C\CCCCCC(=O)OC[C@@H](COC(=O)CCCCCCC/C=C\CCCCCCCC)OC(=O)CCCCCCC/C=C\CCCCCCCC [TG 18:1_18:1_22:5] (ion (formula + adduct): [C61H104O6+NH4] 1+)
Marked response: 332.3

Exam item: Determine from records and report TIMS collisional cross section for CCCCC/C=C\C/C=C\C/C=C\C/C=C\CCCC(=O)O[C@H](COC(=O)CCCCCCCCCCCCCCC)COP(=O)(O)OCCN [PE 16:0_20:4] (ion (formula + adduct): [C41H74NO8P+H] 1+)
Marked response: 276.1

Exam item: Determine from records and report TIMS collisional cross section for CCCCCCCCCCCCCCCC(=O)OC[C@H](COP(=O)(O)OCCN)OC(=O)CCCCCCCCCCCCC [PE 16:0_14:0@] (ion (formula + adduct): [C35H70NO8P+H] 1+)
Marked response: 267.4

Exam item: Determine from records and report TIMS collisional cross section for CCCCCC/C=C\CCCCCCCC(=O)OC[C@H](COC(=O)CCCCCCC/C=C\CCCCCCC)OC(=O)CCCCCCC/C=C\CCCCCCC [TG 16:1_17:1_17:1] (ion (formula + adduct): [C53H96O6+NH4] 1+)
Marked response: 314.8

Exam item: Determine from records and report TIMS collisional cross section for CC/C=C\C/C=C\C/C=C\C/C=C\C/C=C\C/C=C\CCC(=O)O[C@H](COC(=O)CCCCCCCCCCCCCCCCC)COP(=O)(O)OCCN [PE 18:0_22:6] (ion (formula + adduct): [C45H78NO8P+H] 1+)
Marked response: 285.5

Exam item: Determine from records and report TIMS collisional cross section for CC/C=C\C/C=C\C/C=C\C/C=C\C/C=C\C/C=C\CCC(=O)OC[C@@H](COC(=O)CCCCCCC/C=C\CCCCCC)OC(=O)CCCCC/C=C\C/C=C\C/C=C\C/C=C\C/C=C\CC [TG 16:1_22:5_22:6] (ion (formula + adduct): [C63H98O6+NH4] 1+)
Marked response: 332.4

Exam item: Determine from records and report TIMS collisional cross section for CCCCCCCCCCCCCCCC(=O)OC[C@@H](COC(=O)CCCCCCCCCCCCC)OC(=O)CCCCCCCCCCCCCCC [TG 14:0_16:0_16:0] (ion (formula + adduct): [C49H94O6+NH4] 1+)
Marked response: 308.5

Exam item: Determine from records and report TIMS collisional cross section for CCCCC/C=C\C/C=C\CCCCCCCC(=O)OC[C@@H](COC(=O)CCCCCCC/C=C\CCCCCC)OC(=O)CCCCCCC/C=C\CCCCCCC [TG 16:1_17:1_18:2] (ion (formula + adduct): [C54H96O6+NH4] 1+)
Marked response: 315.1

Exam item: Determine from records and report TIMS collisional cross section for CCCC/C=C\CCCCCCCC(=O)O[C@@H](COC(=O)CCCCCCC/C=C\CCCCCC)COC(=O)CCCCCCCCCCCCC [TG 14:0_14:1_16:1] (ion (formula + adduct): [C47H86O6+NH4] 1+)
Marked response: 297.4

Exam item: Determine from records and report TIMS collisional cross section for CCCCCCCC/C=C\CCCCCCCCCC(=O)OC[C@@H](COC(=O)CCCCCCCCCCCCCCC)OC(=O)CCCCCCC/C=C\CCCCCCCC [TG 16:0_18:1_20:1] (ion (formula + adduct): [C57H106O6+NH4] 1+)
Marked response: 328.4

Exam item: Determine from records and report TIMS collisional cross section for CCCCCCCC/C=C\CCCCCCCC(=O)O[C@H](COC(=O)CCCCCCCCCCCCCCC)COP(=O)([O-])OCC[N+](C)(C)C [PC 16:0_18:1] (ion (formula + adduct): [C42H82NO8P+Na] 1+)
Marked response: 288.7

Exam item: Determine from records and report TIMS collisional cross section for CCCCCC/C=C\CCCCCCCC(=O)OC[C@H](COP(=O)(O)OCCN)OC(=O)CCCCCCC/C=C\CCCCCC [PE 16:1_16:1] (ion (formula + adduct): [C37H70NO8P+Na] 1+)
Marked response: 266.4
